- target-of-assay: Sigma non-opioid intracellular receptor 1 (Cavia porcellus)
- Sequence (Q60492 whole entry): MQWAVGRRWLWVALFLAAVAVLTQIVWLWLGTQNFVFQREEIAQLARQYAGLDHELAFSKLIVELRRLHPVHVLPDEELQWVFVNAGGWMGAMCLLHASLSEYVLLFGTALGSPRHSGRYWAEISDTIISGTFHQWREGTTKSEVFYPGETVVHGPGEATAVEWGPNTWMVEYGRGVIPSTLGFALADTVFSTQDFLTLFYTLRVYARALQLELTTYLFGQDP
- measurement-notes: Displacement of [3H]-(+)-pentazocine from sigma1 receptor in guinea pig brain membranes incubated for 120 mins by scintillation counting method
Consider the following compounds; for each one, report its Ki.
I only need the number, in nM, no unit after it.

IN: I'd like to know its Ki. The compound in question is CCN(Cc1ccccc1)C1CCc2ccsc2CC1 (stereo not given)
OUT: 60

IN: I'd like to know its Ki. The compound in question is CCN(CCc1ccccc1)C1CCc2ccsc2CC1 (stereo not given)
OUT: 59

IN: I'd like to know its Ki. The compound in question is Oc1ccc(-c2cc3c(s2)CCC(NCCCc2ccccc2)CC3)cc1 (stereo not given)
OUT: 181

IN: I'd like to know its Ki. The compound in question is Brc1cc2c(s1)CCC(NCCCc1ccccc1)CC2 (stereo not given)
OUT: 41

IN: I'd like to know its Ki. The compound in question is OCc1cc2c(s1)CCC(NCCCc1ccccc1)CC2 (stereo not given)
OUT: 61
